Cited source for all entries: paper PMC4242493

target_or_system: MaxL homodimer (Homo sapiens, UniProt P61244 1-160)
Sequence (P61244 whole entry): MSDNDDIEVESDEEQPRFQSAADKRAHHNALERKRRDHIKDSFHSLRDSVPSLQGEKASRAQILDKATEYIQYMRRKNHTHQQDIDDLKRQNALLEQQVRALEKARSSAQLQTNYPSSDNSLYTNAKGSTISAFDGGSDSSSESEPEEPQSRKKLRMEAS
assay_overview: universal protein-binding microarray (PBM); PBS-based mixture, 10 nM His-tagged protein dimer, 2% milk, 200 ng/uL BSA, 50 ng/uL salmon testes DNA, 0.02% TX-100; detection with Alexa 488 anti-His antibody;; high values mean tight binding;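 note: fluorescence intensity normalized to that of the highest-ranked 8-mer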
condition_details: protein: recombinant; tags: C-terminal His-tag (pET21a); chain copies: 2; dsDNA, one strand shown
Over roughly 33,000 sequences, “normalized occupancy” has its median near 0.075; the highest 2% begin near 0.095. This is one part of a sample in which the highest values are shown more often than they occur.
Kindly state binding signal for each of the entries shown.
# output: bare number, implied unit normalized occupancy

Given AAGGTGTA , state its recorded binding signal.
0.0773

Given AGTCACAT , state its recorded binding signal.
0.101

Given CACGTGTC , state its recorded binding signal.
0.574

Given AAACCATA , state its recorded binding signal.
0.0792

Given AAGCATTA , state its recorded binding signal.
0.082

Given AAGCATAC , state its recorded binding signal.
0.0751

Given GAGCATCA , state its recorded binding signal.
0.0734

Given CTCTCAGC , state its recorded binding signal.
0.0719

Given ACGCACAA , state its recorded binding signal.
0.0775

Given GCCTGCCA , state its recorded binding signal.
0.072

Given AGTCACAG , state its recorded binding signal.
0.0732

Given GACCTTGA , state its recorded binding signal.
0.0732

Given AACGTATA , state its recorded binding signal.
0.0869

Given AGCCAACA , state its recorded binding signal.
0.0808

Given GAGCATAA , state its recorded binding signal.
0.0797

Given CCCGTGTC , state its recorded binding signal.
0.0814

Given CAGCATCG , state its recorded binding signal.
0.0732

Given ACACCAGT , state its recorded binding signal.
0.0764

Given CGTGCTAA , state its recorded binding signal.
0.0881

Given AAGCATAT , state its recorded binding signal.
0.0839

Given CGGTGGAA , state its recorded binding signal.
0.0725

Given ACCATTAG , state its recorded binding signal.
0.0781

Given ACGCACAG , state its recorded binding signal.
0.076

Given AGGCACAT , state its recorded binding signal.
0.098

Given ACCGTGTG , state its recorded binding signal.
0.0873

Given AAGCATGT , state its recorded binding signal.
0.0997

Given CAGGTGTA , state its recorded binding signal.
0.0957

Given AGAATGGA , state its recorded binding signal.
0.0768

Given AGCTGACA , state its recorded binding signal.
0.0754

Given ACCTGATG , state its recorded binding signal.
0.0825

Given TAGCATGA , state its recorded binding signal.
0.0921

Given CAGCATAG , state its recorded binding signal.
0.0739

Given CAGCATGG , state its recorded binding signal.
0.13

Given ATATCTCC , state its recorded binding signal.
0.0807

Given AGGCACAG , state its recorded binding signal.
0.075

Given AAGCATGC , state its recorded binding signal.
0.118

Given CAGCATGA , state its recorded binding signal.
0.106

Given AACATCCA , state its recorded binding signal.
0.0849

Given AACGTGTA , state its recorded binding signal.
0.11

Given AAGCATCT , state its recorded binding signal.
0.0778

Given CACTTCAG , state its recorded binding signal.
0.0728

Given ACGCACAT , state its recorded binding signal.
0.0968

Given GAATTATA , state its recorded binding signal.
0.0789

Given AAGCATGG , state its recorded binding signal.
0.11

Given CAAGTGTC , state its recorded binding signal.
0.0772

Given GAGCATGA , state its recorded binding signal.
0.0963
